tested on: Escherichia coli TOP10; assay: shrunken log2 fold change of peptide-encoding DNA abundance (4.5 h post-induction vs induction); higher = less antimicrobial activity (less host growth inhibition); conditions: time post-induction: 4.5 h; library: site-saturation at positions 5, 18, 19, 20
Attribute measured: shrunken log2 fold change

>  <Construct sequence>
RRIRCRPPRLPRPRPRPVAGPRP

>  <Val>
0.0113

$$$$
>  <Construct sequence>
RRIRDRPPRLPRPRPRPGEHPRP

>  <Val>
0.0372

$$$$
>  <Construct sequence>
RRIRYRPPRLPRPRPRPMWGPRP

>  <Val>
0.171

$$$$
>  <Construct sequence>
RRIRPRPPRLPRPRPRPNDVPRP

>  <Val>
-0.206

$$$$
>  <Construct sequence>
RRIRERPPRLPRPRPRPDFFPRP

>  <Val>
-0.279

$$$$
>  <Construct sequence>
RRIRSRPPRLPRPRPRPGERPRP

>  <Val>
0.637

$$$$
>  <Construct sequence>
RRIRKRPPRLPRPRPRPCKIPRP

>  <Val>
-0.248

$$$$
>  <Construct sequence>
RRIRDRPPRLPRPRPRPFYCPRP

>  <Val>
-0.0803

$$$$
>  <Construct sequence>
RRIRARPPRLPRPRPRPYEKPRP

>  <Val>
-0.201

$$$$
>  <Construct sequence>
RRIRQRPPRLPRPRPRPTGYPRP

>  <Val>
0.0832

$$$$
>  <Construct sequence>
RRIRERPPRLPRPRPRPSGDPRP

>  <Val>
-0.253

$$$$
>  <Construct sequence>
RRIRSRPPRLPRPRPRPYDLPRP

>  <Val>
-0.261

$$$$
>  <Construct sequence>
RRIRDRPPRLPRPRPRPSHNPRP

>  <Val>
-0.314

$$$$
>  <Construct sequence>
RRIRVRPPRLPRPRPRPRWYPRP

>  <Val>
-0.232

$$$$
>  <Construct sequence>
RRIRMRPPRLPRPRPRPEEIPRP

>  <Val>
0.0117

$$$$
>  <Construct sequence>
RRIRDRPPRLPRPRPRPFSNPRP

>  <Val>
-0.0771

$$$$
>  <Construct sequence>
RRIRYRPPRLPRPRPRPTTGPRP

>  <Val>
-0.549

$$$$
>  <Construct sequence>
RRIRCRPPRLPRPRPRPWDGPRP

>  <Val>
0.0877

$$$$
>  <Construct sequence>
RRIRYRPPRLPRPRPRPAGGPRP

>  <Val>
0.148

$$$$
>  <Construct sequence>
RRIRNRPPRLPRPRPRPYFQPRP

>  <Val>
-0.317

$$$$
>  <Construct sequence>
RRIRSRPPRLPRPRPRPGYMPRP

>  <Val>
-0.148

$$$$
>  <Construct sequence>
RRIRIRPPRLPRPRPRPDQDPRP

>  <Val>
-0.162

$$$$
>  <Construct sequence>
RRIRRRPPRLPRPRPRPDWDPRP

>  <Val>
-0.0829

$$$$
>  <Construct sequence>
RRIRHRPPRLPRPRPRPGDTPRP

>  <Val>
-0.0174

$$$$
>  <Construct sequence>
RRIRSRPPRLPRPRPRPKDQPRP

>  <Val>
0.232

$$$$
>  <Construct sequence>
RRIRGRPPRLPRPRPRPNAFPRP

>  <Val>
0.665

$$$$
>  <Construct sequence>
RRIRKRPPRLPRPRPRPFIGPRP

>  <Val>
-0.0147

$$$$
>  <Construct sequence>
RRIRMRPPRLPRPRPRPSGQPRP

>  <Val>
0.602

$$$$
>  <Construct sequence>
RRIRYRPPRLPRPRPRPAGEPRP

>  <Val>
-0.148

$$$$
>  <Construct sequence>
RRIRWRPPRLPRPRPRPLKEPRP

>  <Val>
-0.0713

$$$$
>  <Construct sequence>
RRIRKRPPRLPRPRPRPQGFPRP

>  <Val>
-0.00783

$$$$
>  <Construct sequence>
RRIRCRPPRLPRPRPRPSGTPRP

>  <Val>
-0.0132

$$$$

----------
In this section, each of the sequences is paired with its reported shrunken log2 fold change.
tested on: Escherichia coli TOP10; test: shrunken log2 fold change of peptide-encoding DNA abundance (4.5 h post-induction vs induction); higher = less antimicrobial activity (less host growth inhibition); settings: time post-induction: 4.5 h; library: site-saturation at positions 5, 18, 19, 20;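 note: peptides expressed intracellularly from a pBAD plasmid library in pooled LB shake-flask culture, induced with 0.3% L-arabinose, DNA abundance read by NGS, three biological replicates, DESeq2 with apeglm shrinkage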

>  <Construct sequence>
RRIRSRPPRLPRPRPRPLWFPRP

>  <shrunken log2 fold change>
0.274

$$$$
>  <Construct sequence>
RRIRYRPPRLPRPRPRPVWTPRP

>  <shrunken log2 fold change>
0.0188

$$$$
>  <Construct sequence>
RRIRRRPPRLPRPRPRPWGTPRP

>  <shrunken log2 fold change>
-0.0589

$$$$
>  <Construct sequence>
RRIRYRPPRLPRPRPRPKSSPRP

>  <shrunken log2 fold change>
-0.147

$$$$
>  <Construct sequence>
RRIRGRPPRLPRPRPRPYASPRP

>  <shrunken log2 fold change>
0.143

$$$$
>  <Construct sequence>
RRIRFRPPRLPRPRPRPGLHPRP

>  <shrunken log2 fold change>
0.159

$$$$
>  <Construct sequence>
RRIRHRPPRLPRPRPRPVGTPRP

>  <shrunken log2 fold change>
0.0773

$$$$
>  <Construct sequence>
RRIRTRPPRLPRPRPRPIQWPRP

>  <shrunken log2 fold change>
0.015

$$$$
>  <Construct sequence>
RRIRYRPPRLPRPRPRPQWGPRP

>  <shrunken log2 fold change>
0.122

$$$$
>  <Construct sequence>
RRIRTRPPRLPRPRPRPMTVPRP

>  <shrunken log2 fold change>
-0.294

$$$$
>  <Construct sequence>
RRIRPRPPRLPRPRPRPGILPRP

>  <shrunken log2 fold change>
-0.557

$$$$
>  <Construct sequence>
RRIRSRPPRLPRPRPRPCCRPRP

>  <shrunken log2 fold change>
-0.0822

$$$$
>  <Construct sequence>
RRIRERPPRLPRPRPRPATIPRP

>  <shrunken log2 fold change>
-0.105

$$$$
>  <Construct sequence>
RRIRPRPPRLPRPRPRPKLQPRP

>  <shrunken log2 fold change>
-0.00543

$$$$
>  <Construct sequence>
RRIRQRPPRLPRPRPRPNVMPRP

>  <shrunken log2 fold change>
-0.254

$$$$
>  <Construct sequence>
RRIRARPPRLPRPRPRPTAQPRP

>  <shrunken log2 fold change>
0.936

$$$$
>  <Construct sequence>
RRIRPRPPRLPRPRPRPYNRPRP

>  <shrunken log2 fold change>
-0.0087

$$$$
>  <Construct sequence>
RRIRARPPRLPRPRPRPLLCPRP

>  <shrunken log2 fold change>
0.612

$$$$
>  <Construct sequence>
RRIRPRPPRLPRPRPRPGHVPRP

>  <shrunken log2 fold change>
0.564

$$$$
>  <Construct sequence>
RRIRRRPPRLPRPRPRPCTCPRP

>  <shrunken log2 fold change>
-0.111

$$$$
>  <Construct sequence>
RRIRFRPPRLPRPRPRPWARPRP

>  <shrunken log2 fold change>
-0.114

$$$$
>  <Construct sequence>
RRIRQRPPRLPRPRPRPMAIPRP

>  <shrunken log2 fold change>
-0.326

$$$$
>  <Construct sequence>
RRIRTRPPRLPRPRPRPDQAPRP

>  <shrunken log2 fold change>
-0.0986

$$$$
>  <Construct sequence>
RRIRPRPPRLPRPRPRPYLGPRP

>  <shrunken log2 fold change>
3.16

$$$$
>  <Construct sequence>
RRIRWRPPRLPRPRPRPANWPRP

>  <shrunken log2 fold change>
0.273

$$$$
>  <Construct sequence>
RRIRRRPPRLPRPRPRPTSAPRP

>  <shrunken log2 fold change>
0.274

$$$$
>  <Construct sequence>
RRIRWRPPRLPRPRPRPDQDPRP

>  <shrunken log2 fold change>
-0.0971

$$$$
>  <Construct sequence>
RRIRFRPPRLPRPRPRPGKYPRP

>  <shrunken log2 fold change>
-0.586

$$$$
>  <Construct sequence>
RRIRLRPPRLPRPRPRPGSAPRP

>  <shrunken log2 fold change>
0.273

$$$$
>  <Construct sequence>
RRIRCRPPRLPRPRPRPCAYPRP

>  <shrunken log2 fold change>
-0.153

$$$$
>  <Construct sequence>
RRIRIRPPRLPRPRPRPVKNPRP

>  <shrunken log2 fold change>
-0.765

$$$$
>  <Construct sequence>
RRIRHRPPRLPRPRPRPCGYPRP

>  <shrunken log2 fold change>
-0.0081

$$$$
>  <Construct sequence>
RRIRQRPPRLPRPRPRPGDCPRP

>  <shrunken log2 fold change>
-0.0893

$$$$
>  <Construct sequence>
RRIRLRPPRLPRPRPRPNAMPRP

>  <shrunken log2 fold change>
-0.16

$$$$
>  <Construct sequence>
RRIRTRPPRLPRPRPRPPPKPRP

>  <shrunken log2 fold change>
0.82

$$$$
>  <Construct sequence>
RRIRIRPPRLPRPRPRPYWGPRP

>  <shrunken log2 fold change>
-0.151

$$$$
>  <Construct sequence>
RRIRVRPPRLPRPRPRPKKHPRP

>  <shrunken log2 fold change>
-0.0486

$$$$
>  <Construct sequence>
RRIRHRPPRLPRPRPRPKTKPRP

>  <shrunken log2 fold change>
0.0995

$$$$
>  <Construct sequence>
RRIRKRPPRLPRPRPRPHYVPRP

>  <shrunken log2 fold change>
-0.0482

$$$$
>  <Construct sequence>
RRIRQRPPRLPRPRPRPAFKPRP

>  <shrunken log2 fold change>
-0.015

$$$$
>  <Construct sequence>
RRIRCRPPRLPRPRPRPIVQPRP

>  <shrunken log2 fold change>
0.0655

$$$$
>  <Construct sequence>
RRIRVRPPRLPRPRPRPMVCPRP

>  <shrunken log2 fold change>
-0.062

$$$$
>  <Construct sequence>
RRIRERPPRLPRPRPRPKYPPRP

>  <shrunken log2 fold change>
-0.00672

$$$$
>  <Construct sequence>
RRIRCRPPRLPRPRPRPHCNPRP

>  <shrunken log2 fold change>
-0.395

$$$$
>  <Construct sequence>
RRIRMRPPRLPRPRPRPFQLPRP

>  <shrunken log2 fold change>
0.118

$$$$
>  <Construct sequence>
RRIRCRPPRLPRPRPRPEFRPRP

>  <shrunken log2 fold change>
-0.0284

$$$$
>  <Construct sequence>
RRIRDRPPRLPRPRPRPHQDPRP

>  <shrunken log2 fold change>
0.00101

$$$$
>  <Construct sequence>
RRIRYRPPRLPRPRPRPLEMPRP

>  <shrunken log2 fold change>
-0.0768

$$$$
>  <Construct sequence>
RRIRFRPPRLPRPRPRPSRTPRP

>  <shrunken log2 fold change>
0.0872

$$$$
>  <Construct sequence>
RRIRYRPPRLPRPRPRPANPPRP

>  <shrunken log2 fold change>
-0.422

$$$$
>  <Construct sequence>
RRIRKRPPRLPRPRPRPHMRPRP

>  <shrunken log2 fold change>
0.0568

$$$$
>  <Construct sequence>
RRIRFRPPRLPRPRPRPDFCPRP

>  <shrunken log2 fold change>
-0.0235

$$$$
>  <Construct sequence>
RRIRNRPPRLPRPRPRPWIKPRP

>  <shrunken log2 fold change>
-0.739

$$$$
>  <Construct sequence>
RRIRLRPPRLPRPRPRPMLQPRP

>  <shrunken log2 fold change>
-0.0201

$$$$
>  <Construct sequence>
RRIRERPPRLPRPRPRPQRGPRP

>  <shrunken log2 fold change>
-0.0773

$$$$
>  <Construct sequence>
RRIRRRPPRLPRPRPRPEGYPRP

>  <shrunken log2 fold change>
0.202

$$$$
>  <Construct sequence>
RRIRGRPPRLPRPRPRPTPHPRP

>  <shrunken log2 fold change>
0.906

$$$$
>  <Construct sequence>
RRIRDRPPRLPRPRPRPDNQPRP

>  <shrunken log2 fold change>
-0.105

$$$$
>  <Construct sequence>
RRIRHRPPRLPRPRPRPECIPRP

>  <shrunken log2 fold change>
-0.00992

$$$$
>  <Construct sequence>
RRIRERPPRLPRPRPRPIRLPRP

>  <shrunken log2 fold change>
-0.0614

$$$$
>  <Construct sequence>
RRIRHRPPRLPRPRPRPPCFPRP

>  <shrunken log2 fold change>
-0.0882

$$$$
>  <Construct sequence>
RRIRDRPPRLPRPRPRPEHNPRP

>  <shrunken log2 fold change>
0.14

$$$$
>  <Construct sequence>
RRIRCRPPRLPRPRPRPGRWPRP

>  <shrunken log2 fold change>
0.434

$$$$
